# Tested on: HBV viral production in AD38 cells
# experiment.description: Viral load production in AD38 cells by quantitative PCR of the HBV core sequence in supernatant
# Type: cell-based
# particulars: Hepatitis B virus, 144 h; 10 μM compound, 6 days at 37° C., viral load in supernatant compared against DMSO control wells; read-out: AD38 Viral Load (CpAM/DMSO %) at 10 μM
Returns: string. Value is class 1 if measured activity at 10 µM is below 40%, and class 0 if it is greater than or equal to it.

> print(dat)
                                    compound               target.or.test.system  label.value
 1  CS(=O)(=O)c1ccc(CCNC(=O)c2ccc3c(c2)NC(=O)c2ccccc2S3)cc1  HBV viral production in AD38 cells      class 1
 2  COC(=O)c1ccccc1-c1cccc(NC(=O)c2ccc3c(c2)NC(=O)c2ccccc2S3(=O)=O)c1  HBV viral production in AD38 cells      class 1
 3  O=C(NCc1cccc(OC(F)(F)F)c1)c1ccc2c(c1)NC(=O)c1ccccc1S2  HBV viral production in AD38 cells      class 1
 4  Cc1c(C(=O)NCCc2ccc(-c3ccccc3)cc2)ccc2c1NC(=O)c1ccccc1S2  HBV viral production in AD38 cells      class 1
 5  O=C(NCc1cnc(-c2ccccc2)s1)c1ccc2c(c1)NC(=O)c1ccccc1S2  HBV viral production in AD38 cells      class 1
 6  CN1c2ccc(C(=O)NCc3cncs3)cc2NC(=O)c2ccccc21  HBV viral production in AD38 cells      class 1
 7  Cc1c(C(=O)NCCc2cnco2)ccc2c1NC(=O)c1ccccc1S2  HBV viral production in AD38 cells      class 1
 8  CCC(CNC(=O)c1ccc2c(c1)NC(=O)c1ccccc1S2)c1ccccc1 (stereo not shown)  HBV viral production in AD38 cells      class 1
 9  O=C(NCc1ccncc1)c1ccc2c(c1)NC(=O)c1ccccc1S2  HBV viral production in AD38 cells      class 1
10  O=C(NCc1cncnc1)c1ccc2c(c1)NC(=O)c1c(F)cccc1S2  HBV viral production in AD38 cells      class 1
11  O=C1Nc2c(cc(F)c(C(=O)NCCc3cncnc3)c2F)Sc2ccccc21  HBV viral production in AD38 cells      class 1
12  O=C(Nc1nnco1)c1ccc2c(c1)NC(=O)c1cc(F)ccc1S2  HBV viral production in AD38 cells      class 1
13  O=C(NCCc1cccc(O)c1)c1ccc2c(c1)NC(=O)c1ccccc1S2  HBV viral production in AD38 cells      class 0
14  O=C(NCCC1CCOCC1)c1ccc2c(c1)NC(=O)c1ccccc1S2  HBV viral production in AD38 cells      class 1
15  O=C(Nc1ccc(F)cn1)c1ccc2c(c1)NC(=O)c1cc(F)ccc1S2  HBV viral production in AD38 cells      class 0
16  O=C(NCCC1CCCCC1)Nc1ccc2c(c1)NC(=O)c1ccccc1S2  HBV viral production in AD38 cells      class 1
17  COc1cccc(CCNC(=O)c2ccc3c(c2)NC(=O)c2ccccc2S3)c1  HBV viral production in AD38 cells      class 0
18  CN(C)S(=O)(=O)c1ccc(CCNC(=O)c2ccc3c(c2)NC(=O)c2cccc(F)c2S3)cc1  HBV viral production in AD38 cells      class 0
19  O=C(NCCc1nnc(-c2ccco2)[nH]1)c1ccc2c(c1)NC(=O)c1ccccc1S2  HBV viral production in AD38 cells      class 1
20  O=C(NCCC1CCC(F)CC1)c1ccc2c(c1)NC(=O)c1ccccc1S2 (stereo not shown)  HBV viral production in AD38 cells      class 1
21  O=C(NCc1cncs1)c1cc2c(cc1F)Sc1ccccc1C(=O)N2  HBV viral production in AD38 cells      class 1
22  O=C(NCc1cnccn1)c1ccc2c(c1)NC(=O)c1ccccc1S2  HBV viral production in AD38 cells      class 1
23  O=C(NCCc1cccc(C(F)(F)F)c1)c1ccc2c(c1)NC(=O)c1ccccc1S2  HBV viral production in AD38 cells      class 1
24  O=C(Nc1ccccn1)c1ccc2c(c1)NC(=O)c1ccccc1S2  HBV viral production in AD38 cells      class 0
25  O=C(NCC1CCOC1)c1ccc2c(c1)NC(=O)c1ccccc1S2 (stereo not shown)  HBV viral production in AD38 cells      class 1
26  O=C(NCCCCc1ccccc1)c1ccc2c(c1)NC(=O)c1ccccc1S2  HBV viral production in AD38 cells      class 1
27  CC(C)(CNC(=O)c1ccc2c(c1)NC(=O)c1ccccc1S2)c1ccccc1  HBV viral production in AD38 cells      class 1
28  O=C(O)c1ccc(-c2cccc(NC(=O)c3ccc4c(c3)NC(=O)c3cc(F)ccc3S4)c2)cc1  HBV viral production in AD38 cells      class 0
29  O=C(Nc1ccncn1)c1ccc2c(c1)NC(=O)c1cc(F)ccc1S2  HBV viral production in AD38 cells      class 0
30  CCN1c2ccc(C(=O)NCCc3ccc(-c4ccccc4)cc3)cc2NC(=O)c2ccccc21  HBV viral production in AD38 cells      class 1

###

Catalogue of AD38 Viability Normalized Result (CPAM/DMSO %) at 10 μM readings, one per entry.
# Tested on: AD38 cells
# experiment.description: Viability of AD38 cells (Promega CellTiter-Glo) at the end of compound treatment
# Assay type: cell-based
# particulars: 10 μM compound, 6 days, luminescence normalized against DMSO control wells (controls being 100%)
assay.readout: AD38 Viability Normalized Result (CPAM/DMSO %) at 10 μM

> print(dat)
                                    molecule  experimental.result
 1  O=C(NCC(c1ccccc1)N1CCCC1)c1ccc2c(c1)NC(=O)c1ccccc1S2 (centres unmarked) [Compound 1251]                   99
 2  O=C(NCCc1cccnc1)c1ccc2c(c1)NC(=O)c1ccccc1[S+]2[O-] (centres unmarked) [Compound 1389]                   89
 3  O=C(NCc1ccc(-c2cncnc2)cc1)c1ccc2c(c1)NC(=O)c1ccccc1S2(=O)=O [Compound 1627]                  115
 4  O=C(NCc1cncnc1)c1ccc2c(c1)NC(=O)c1c(F)cccc1S2 [Compound 1540]                   87
 5  O=C(Nc1ccncc1)c1ccc2c(c1)NC(=O)c1c(F)cccc1S2 [Compound 1463]                   97
 6  COCCNC(=O)c1ccc2c(c1)NC(=O)c1ccccc1S2 [Compound 1171]                  103
 7  COc1cccc(CCNC(=O)c2ccc3c(c2)NC(=O)c2ccccc2S3)c1 [Compound 1124]                   99
 8  O=C1Nc2cc(S(=O)(=O)Nc3ccc(F)cc3)ccc2Sc2ccccc21 [Compound 1413]                   78
 9  O=C(NCCc1cnco1)c1ccc2c(c1)NC(=O)c1c(F)cccc1S2 [Compound 1580]                   89
10  CC(C)(C)c1ccc(CNC(=O)c2ccc3c(c2)NC(=O)c2ccccc2S3)cc1 [Compound 1165]                   82
11  O=C1Nc2c(cc(F)c(C(=O)NCCc3ccccn3)c2F)Sc2ccccc21 [Compound 1519]                   81
12  O=C(NCc1cccnc1)c1ccc2c(c1)NC(=O)c1ccccc1S2(=O)=O [Compound 1449]                   86
13  CN1c2ccc(C(=O)NCc3cncs3)cc2NC(=O)c2ccccc21 [Compound 1581]                   97
14  CN(C)CCCOc1ccc(CCNC(=O)c2ccc3c(c2)NC(=O)c2ccccc2S3)cc1.Cl [Compound 1155]                  103
15  O=C(NCc1cncs1)c1ccc2c(c1)NC(=O)c1ccccc1N2 [Compound 1602]                  116
16  Cc1c(C(=O)NCc2cccnc2)ccc2c1NC(=O)c1ccccc1S2 [Compound 1515]                   82
17  CCN1c2ccc(C(=O)NCCc3ccccn3)cc2NC(=O)c2ccccc21 [Compound 1522]                   82
18  O=C(NCCC1CCCCC1)c1ccc2c(c1)NC(=O)c1cc(F)ccc1S2 [Compound 1285]                  108
19  Cc1c(C(=O)NCc2cnco2)ccc2c1NC(=O)c1ccccc1S2 [Compound 1514]                   84
20  O=C(Nc1ccccc1)c1ccc2c(c1)NC(=O)c1cc(F)ccc1S2 [Compound 1319]                   83
21  CN(C)S(=O)(=O)c1ccc(CCNC(=O)c2ccc3c(c2)NC(=O)c2ccccc2[S+]3[O-])cc1 (centres unmarked) [Compound 1486]                   94
22  COC(C)(C)CCNC(=O)c1ccc2c(c1)NC(=O)c1ccccc1S2 [Compound 1238]                  104
23  Cc1nnc(NC(=O)c2ccc3c(c2)NC(=O)c2cc(F)ccc2S3)o1 [Compound 1503]                   87
24  O=C(Nc1ccncn1)c1ccc2c(c1)NC(=O)c1cc(F)ccc1S2 [Compound 1344]                  102
25  CCN1c2ccc(C(=O)NCc3cccnc3)cc2NC(=O)c2ccccc21 [Compound 1550]                   87
26  O=C(NCCc1ccccc1)c1ccc2c(c1)NC(=O)c1ccccc1S2 [Compound 1104]                   85
27  NC(=O)c1ccc2c(c1)NC(=O)c1ccccc1[S+]2[O-] (centres unmarked) [Compound 1575]                  108
28  O=C(Nc1nncs1)c1ccc2c(c1)NC(=O)c1cc(F)ccc1S2 [Compound 1442]                   99
29  COCC(Cc1cncnc1)NC(=O)c1ccc2c(c1)NC(=O)c1cc(F)ccc1S2 (centres unmarked) [Compound 1397]                   95
30  O=C(NCc1cnco1)c1cc2c(cc1F)Sc1ccccc1C(=O)N2 [Compound 1430]                   92
31  O=C(Nc1ccncc1)c1ccc2c(c1)NC(=O)c1ccccc1S2(=O)=O [Compound 1462]                   99
32  COC(=O)c1ccccc1-c1cccc(NC(=O)c2ccc3c(c2)NC(=O)c2cc(F)ccc2S3)c1 [Compound 1436]                  104
33  O=C(NCCc1ccc(F)cc1)c1ccc2c(c1)NC(=O)c1ccccc1S2 [Compound 1113]                   99
34  O=C(NCCCOc1ccccc1)c1ccc2c(c1)NC(=O)c1ccccc1S2 [Compound 1241]                   86
35  Cc1nnc(CCNC(=O)c2ccc3c(c2)NC(=O)c2ccccc2S3)[nH]1 [Compound 1583]                  121
